assay-comment: Half-life period was determined for the compound in rat
Type: ADME, organism-based
experimental-context: in vivo
assay-endpoint: half-life
# number then unit; no other words

For the compound "OC1(CCCc2ccc(-c3nnn[nH]3)cc2)CCN(C[C@H]2CN(CC3CCCCC3)C[C@@H]2c2ccccc2)CC1" , give its measured half-life value. 20 min

###

assay-comment: Plasma clearance rate was determined for the compound in rat
Type: ADME, organism-based
experimental-context: read-out: Clp
assay-endpoint: clearance (mL/min/kg)
Give bare numbers, in mL/min/kg.

Find the measured clearance of "OC1(CCCc2ccc(-c3nnn[nH]3)cc2)CCN(C[C@H]2CN(CC3CCCCC3)C[C@@H]2c2ccccc2)CC1" and report it. 61

###

measured-target: C-C chemokine receptor type 5 (Homo sapiens, UniProt P51681)
Sequence (P51681 whole entry): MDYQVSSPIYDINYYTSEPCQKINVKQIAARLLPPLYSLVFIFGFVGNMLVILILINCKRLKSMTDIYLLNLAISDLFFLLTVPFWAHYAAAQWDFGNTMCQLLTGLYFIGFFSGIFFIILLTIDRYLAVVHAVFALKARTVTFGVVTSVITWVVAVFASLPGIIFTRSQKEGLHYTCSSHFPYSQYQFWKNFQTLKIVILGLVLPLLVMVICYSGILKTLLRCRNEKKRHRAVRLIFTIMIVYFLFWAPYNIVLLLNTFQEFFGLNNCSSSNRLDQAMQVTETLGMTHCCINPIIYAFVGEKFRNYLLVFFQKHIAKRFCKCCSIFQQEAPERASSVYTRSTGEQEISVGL
assay-comment: Displacement of [125I]-labeled MIP-1alpha from the C-C chemokine receptor type 5 expressed on CHO cell membranes.
Format: cell-based
assay-endpoint: IC50
A bare number is not enough; add the unit after it.

Reference set (3 entries):
• OC1(CCCc2cccnc2)CCN(C[C@H]2CN(CC3CCCCC3)C[C@@H]2c2ccccc2)CC1 = 6 nM
• OC1(CCCc2ccccn2)CCN(C[C@H]2CN(CC3CCCCC3)C[C@@H]2c2ccccc2)CC1 = 7 nM
• OC1(CCCc2ccncc2)CCN(C[C@H]2CN(CC3CCCCC3)C[C@@H]2c2ccccc2)CC1 = 12 nM

Enter IC50 (test system C-C chemokine receptor type 5 (Homo sapiens, UniProt P51681)) for "OC1(CCCc2ccccc2)CCN(C[C@H]2CN(CC3CCCCC3)C[C@@H]2c2ccccc2)CC1" 0.3 nM
